- System: HepG2
- Assay Summary: cytotoxicity call (relative viability < 0.9)
- Condition Context: 10 µM
About 3,300 (8.5%) of roughly 39,000 compounds were called active. The sample holds actives, similar compounds and a random draw of the others, so the mix is not that of the screen.
Possible outcomes: t for active, f for inactive

{"Mol Smiles": "C[C@@H]1CN([C@@H](C)CO)C(=O)Cc2cc(NC(=O)Nc3ccc(F)cc3)ccc2O[C@@H]1CN(C)Cc1ccc(C(=O)Nc2ccccc2N)cc1", "Target Desc": "HepG2", "Class Assignment": "t"}
{"Mol Smiles": "C[C@H]1CN([C@@H](C)CO)C(=O)Cc2cc(NC(=O)Nc3ccc(F)cc3)ccc2O[C@H]1CN(C)Cc1ccc(C(=O)Nc2ccccc2N)cc1", "Target Desc": "HepG2", "Class Assignment": "t"}
{"Mol Smiles": "C[C@@H]1CN([C@H](C)CO)S(=O)(=O)c2ccc(C#Cc3ccncc3)cc2O[C@@H]1CN(C)C(=O)C1CCC1", "Target Desc": "HepG2", "Class Assignment": "t"}
{"Mol Smiles": "COc1ccc(S(=O)(=O)N(C)C[C@@H]2Oc3ccc(NC(=O)Cn4cnnn4)cc3CC(=O)N([C@H](C)CO)C[C@H]2C)cc1", "Target Desc": "HepG2", "Class Assignment": "f"}
{"Mol Smiles": "Cc1ccc(S(=O)(=O)N(C)C[C@H]2Oc3ccc(NS(=O)(=O)c4ccccc4)cc3CC(=O)N([C@H](C)CO)C[C@@H]2C)cc1", "Target Desc": "HepG2", "Class Assignment": "f"}
{"Mol Smiles": "C[C@H]1CN([C@@H](C)CO)C(=O)c2c(c3ccccc3n2C)-c2ccccc2CO[C@@H]1CN(C)Cc1ccc(O)cc1", "Target Desc": "HepG2", "Class Assignment": "f"}
{"Mol Smiles": "COc1ccc2c3c(n(c2c1)C)[C@H](CO)N(C[C@]13CCN(CC1)C(=O)c1ccccc1F)C(=O)Nc1ccc(cc1)F", "Target Desc": "HepG2", "Class Assignment": "f"}

----------
- System: HepG2
- Assay Summary: cytotoxicity call (relative viability < 0.9)
- Condition Context: 10 µM
Out of some 39,000 compounds screened, about 3,300 (8.5%) were called active. What follows is part of a selection rich in actives, with near analogues and random picks from the rest.
Possible outcomes: active, inactive

{"Compound": "C[C@@H]1CCCCO[C@H](CN(C)C(=O)Nc2ccc(F)cc2)[C@@H](C)CN([C@@H](C)CO)C(=O)c2cc(NS(=O)(=O)c3ccc(Cl)cc3)ccc2O1", "Target Desc": "HepG2", "Class Assignment": "active"}
{"Compound": "F[C@H]1CCNC1", "Target Desc": "HepG2", "Class Assignment": "inactive"}
{"Compound": "C[C@@H]1CN([C@@H](C)CO)C(=O)c2cc(NS(=O)(=O)c3ccccc3)ccc2O[C@@H](C)CCCCO[C@H]1CN(C)Cc1ccccc1", "Target Desc": "HepG2", "Class Assignment": "inactive"}
{"Compound": "C[C@@H]1CCCCO[C@@H](CN(C)C(=O)Nc2ccccc2)[C@H](C)CN([C@@H](C)CO)C(=O)c2cc(NS(=O)(=O)c3ccc(Cl)cc3)ccc2O1", "Target Desc": "HepG2", "Class Assignment": "inactive"}
{"Compound": "CC(C)(C)S(=O)N1Cc2cc(C(=O)N[C@@H]3CCN(Cc4ccccc4)C3)nc(-c3cccc(C#CCC4CCCC4)c3)c2[C@@H]1CCO (some centres not stated)", "Target Desc": "HepG2", "Class Assignment": "inactive"}
{"Compound": "C[C@@H]1CN([C@@H](C)CO)C(=O)c2ccccc2-c2ccccc2CO[C@@H]1CN(C)C(=O)Nc1ccc(-c2ccccc2)cc1", "Target Desc": "HepG2", "Class Assignment": "inactive"}
{"Compound": "C[C@@H]1CN([C@@H](C)CO)C(=O)c2c(c3ccccc3n2C)-c2ccccc2CO[C@@H]1CN(C)C(=O)Nc1ccc(-c2ccccc2)cc1", "Target Desc": "HepG2", "Class Assignment": "inactive"}
